meta.source: PubChem BioAssay AID2732

assay_text: blockers of ER-stress CHOP reporter expression – cell-based, unfolded protein response, luciferase reporter, primary screen (AID 2732);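 also: 0% = tunicamycin plus vehicle and 100% = wells without tunicamycin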
recorded_conditions: CHO-K1 CHOP-promoter luciferase, tunicamycin-induced, 15-18 h; at 10 µM; hits give high values
The whole screen tested about 220,000 compounds, of which about 8,200 (3.7%) were called active. The sample as a whole holds a higher share of actives than the screen did.
measurement_label: inhibition (%)
Number in %, nothing else.

Data request: State the recorded inhibition for this entry: `Cc1ccc(F)cc1NC(=O)N1CCCN(c2ccc(C(F)(F)F)cn2)CC1`
Data returned: 1.83

Data request: Try the compound `Cn1cccc1/C=C1\SC(=S)N(NC(=O)c2ccc(Cl)cc2)C1=O`
Data returned: 20.4

Data request: Try the compound `CCCc1cc(-c2nc(-c3ccc(C)cc3)cs2)ccn1`
Data returned: 39.6

Data request: Try the compound `FC(F)(F)c1cccc(-c2nc(COc3ccc(Cl)cc3Cl)no2)c1`
Data returned: -14.1

Data request: Try the compound `Nc1nc(Sc2ncccc2[N+](=O)[O-])n[nH]1`
Data returned: -14.3

Data request: Try the compound `CSc1ccc(NC(=O)/C=C/C(=O)O)cc1`
Data returned: 6.47

Data request: Try the compound `CC(=O)c1nnn(-c2ccc(Cl)cc2C#N)c1C`
Data returned: 13.8

Data request: Try the compound `Cc1ccc(Nc2c3c(nc4ccccc24)CCC3)cc1`
Data returned: 17.5

Data request: Try the compound COc1ccc(COCC(O)CN2CCC(C(N)=O)CC2)cc1 (centres undefined)
Data returned: -5.79

Data request: Try the compound `CCOc1ccc(NC(=O)CN2CCN(CC(=O)Nc3ccc(OC)cc3)CC2)cc1`
Data returned: 34.6

Data request: Try the compound `CCOc1ccc(-n2cnc3c(=O)[nH]c(N)nc32)cc1`
Data returned: 8.78

Data request: Try the compound O=C(C1=C(O)C(=O)N(CCOCCO)C1c1ccccn1)c1cccs1 (centres undefined)
Data returned: 8.68

Data request: Try the compound `O=C(NNC(=O)c1cnccc1C(F)(F)F)c1ccc(Cl)cc1`
Data returned: -0.67

Data request: Try the compound `O=C(COc1ccc([N+](=O)[O-])cc1Cl)Nn1cnnc1`
Data returned: -0.23

Data request: Try the compound `Cn1cccc1/C=C1\SC(=O)N(CC(=O)Nc2ccc(F)cc2)C1=O`
Data returned: 72

Data request: Try the compound `N#Cc1ccc(C(=O)Nc2cccc3cccnc23)c(F)c1`
Data returned: -2.37

Data request: Try the compound CCOC(=O)c1ccc(N=C2SC(C(=O)NC)CC(=O)N2CCc2ccccc2)cc1 (centres undefined)
Data returned: -10.9

Data request: Try the compound `COc1ccc(/C=C2\N=C3CCCN3C2=O)cc1`
Data returned: -36.1

Data request: Try the compound `CC(=O)N1CCC(N(C(=O)Nc2ccc(Cl)cc2)C(C)C)CC1`
Data returned: 15.3

Data request: Try the compound CCCCCCC(=O)N(O)C1CC(=O)N(c2ccccc2)C1=O (centres undefined)
Data returned: 106

Data request: Try the compound CC(=O)NCC(O)c1ccc([N+](=O)[O-])cc1 (centres undefined)
Data returned: 5.99

Data request: Try the compound `COc1ccc(-n2cnnc2SCC(=O)Nc2cccc([N+](=O)[O-])c2)cc1`
Data returned: 5.96

Data request: Try the compound `Cn1c(S(=O)(=O)O)nc2ccccc21`
Data returned: 10.4

Data request: Try the compound `COc1ccc(CCNC(=O)CSc2nc3[nH]ncc3c(=O)n2-c2cccc(C(F)(F)F)c2)cc1OC`
Data returned: 16.4

* * *

assay_text: blockers of ER-stress CHOP reporter expression – cell-based, unfolded protein response, luciferase reporter, primary screen (AID 2732);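 also: 0% = tunicamycin plus vehicle and 100% = wells without tunicamycin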
recorded_conditions: CHO-K1 CHOP-promoter luciferase, tunicamycin-induced, 15-18 h; at 10 µM; hits give high values
Screen size: about 220,000 compounds; about 8,200 (3.7%) were called active. What follows is part of a selection rich in actives, with near analogues and random picks from the rest.
Decision: inhibition >= 30% yields Criterion met, all other cases yield Criterion not met.

Data request: Check this molecule for inhibition at or above 30%: `CNC(=O)C(NC(=O)c1ccccc1)=C(C)C`
Data returned: Criterion not met

Data request: Try the molecule `Cc1cc2cc3c(cc2nc1SCC(=O)Nc1c(C)cccc1C)CCC3`
Data returned: Criterion met

Data request: Try the molecule `COc1cccc(C(=O)Nc2nc3ccc(S(C)(=O)=O)cc3s2)c1`
Data returned: Criterion not met

Data request: Try the molecule C=CCn1c(SCc2c(C)noc2C)nc2sc3c(c2c1=O)CCC(C)C3 (stereo unspecified)
Data returned: Criterion not met

Data request: Try the molecule `O=C(NC(=S)Nc1ccc2oc(=O)ccc2c1)c1ccc(-c2cccc(Cl)c2Cl)o1`
Data returned: Criterion met

Data request: Try the molecule Cc1cc(NC(=O)CSc2nc(C(C)C)nc3sc4c(c23)CCC(C)C4)no1 (stereo unspecified)
Data returned: Criterion met

Data request: Try the molecule `Cc1ccc(NS(=O)(=O)c2ccc(N/N=C/c3ccccc3OCC(=O)O)c([N+](=O)[O-])c2)c(C)c1`
Data returned: Criterion not met

Data request: Try the molecule `Cc1ccc(Oc2ccc(N)cc2)cc1`
Data returned: Criterion met

Data request: Try the molecule `Cc1nc(SCC(=O)Nc2cc(C)on2)c2c3c(sc2n1)CCCC3`
Data returned: Criterion met

Data request: Try the molecule `CCO[C@@H]1OC(C(=O)NC2CC2)=C[C@H](C)[C@H]1CCCO`
Data returned: Criterion not met

Data request: Try the molecule O=C1C2C3C=CC(C3)C2C(=O)N1c1ccc(S(=O)(=O)Nc2nccs2)cc1 (stereo unspecified)
Data returned: Criterion not met

Data request: Try the molecule `COc1ccc2nc(NC(=O)c3ccc(Br)s3)sc2c1`
Data returned: Criterion met

Data request: Try the molecule `CCCCN1Cc2c(nc3cc(-c4ccccc4)[nH]n3c2=O)C1=O`
Data returned: Criterion not met

Data request: Try the molecule `Cc1cc(NC(=O)CSc2nc3ccccc3n2CC(C)C)no1`
Data returned: Criterion not met

Data request: Try the molecule `Cc1nn(Cc2ccc(Cl)c(Cl)c2)c(C)c1NC(=O)c1cc(C2CC2)on1`
Data returned: Criterion met

Data request: Try the molecule `COc1ccccc1NC(=O)c1cc(Cl)nc2ccccc12`
Data returned: Criterion not met

Data request: Try the molecule `Cc1cc(NC(=O)CSc2nc3c(cc2C#N)CCCCC3)no1`
Data returned: Criterion not met

Data request: Try the molecule Cc1cc(C(=O)Cn2cnc3cc([N+](=O)[O-])ccc3c2=O)c(C)n1CC1CCCO1 (stereo unspecified)
Data returned: Criterion not met

Data request: Try the molecule `CCCCCCNS(=O)(=O)c1ccccc1Br`
Data returned: Criterion not met

Data request: Try the molecule `COc1ccc(Nc2cc(=O)n(-c3ccccc3)c3c2c(=O)n(C)c(=O)n3C)cc1`
Data returned: Criterion not met

Data request: Try the molecule `Cc1cc(C(=O)NCCc2ccc(Cl)cc2)n(-c2ccccc2)n1`
Data returned: Criterion not met

Data request: Try the molecule `Cc1cc(N2CCN(c3ccccc3)CC2)nc(N2CCOCC2)n1`
Data returned: Criterion not met

Data request: Try the molecule `CC(=O)NNC(=O)c1csc(Cc2c(Cl)sc3ccc(Cl)cc23)n1`
Data returned: Criterion met

Data request: Try the molecule `O=[N+]([O-])c1cc(Br)c(O)c(/C=N/Nc2nc3ccccc3s2)c1`
Data returned: Criterion not met

Data request: Try the molecule `C=CCNC(=S)NNC(=O)c1cc(Cl)ccc1OC`
Data returned: Criterion not met

Data request: Try the molecule `CC(=O)N1CC[n+]2c(-c3ccc([N+](=O)[O-])cc3)csc21`
Data returned: Criterion not met

Data request: Try the molecule `c1ccc(CC2CCN(c3nc4ccccc4n4cnnc34)CC2)cc1`
Data returned: Criterion met

Data request: Try the molecule CCCCC(CCC(=O)Nc1ccc(C(=O)OCC)cc1)C(=O)O (stereo unspecified)
Data returned: Criterion not met

Data request: Try the molecule `COc1ccc(SC[C@H](Cc2ccccc2)N2CCN(CCc3ccccc3)CCC2=O)cc1`
Data returned: Criterion not met

Data request: Try the molecule `Cc1nc(SCC(=O)Nc2cc(C)on2)c2c(C)c(C)sc2n1`
Data returned: Criterion met

Data request: Try the molecule `NC(=O)c1ccc(CN2CCC(Cc3ccccc3)CC2)cc1`
Data returned: Criterion not met

Data request: Try the molecule `CCCCNC(=O)CCn1c(=O)c2ccccc2n(Cc2cc(C)ccc2C)c1=O`
Data returned: Criterion met

Data request: Try the molecule `Brc1ccc(-c2csc(N/N=C/c3ccc4c(c3)OCO4)n2)cc1`
Data returned: Criterion not met

Data request: Try the molecule OC(CNCc1ccc2c(c1)OCO2)COc1ccccc1 (stereo unspecified)
Data returned: Criterion not met

Data request: Try the molecule `Clc1ccc(-c2cc(-c3ccccn3)on2)c(Cl)c1`
Data returned: Criterion met

Data request: Try the molecule `Cc1cccc(C)c1NC(=O)CSc1ccc([N+](=O)[O-])cn1`
Data returned: Criterion not met

Data request: Try the molecule `Nc1ccc(Oc2ccc(Cl)cc2)cc1`
Data returned: Criterion met

Data request: Try the molecule `COc1cc(N2C(=O)CC3(CCCC3)CC2=O)cc(OC)c1OC`
Data returned: Criterion not met

Data request: Try the molecule `Cc1cc(Nc2ccc(N3CCOCC3)cc2)c2cccc(C)c2n1`
Data returned: Criterion not met

Data request: Try the molecule `O=C(c1ccccc1)c1ccc2nc(N3CCCCC3)c3nncn3c2c1`
Data returned: Criterion not met

Data request: Try the molecule `OCCNc1nc2ccccc2n1-c1ncnc2sc3c(c12)CCC3`
Data returned: Criterion met

Data request: Try the molecule `CCCCCOC(=O)NCCOC(=O)Nc1ccc(C(=O)OCC)cc1`
Data returned: Criterion met

Data request: Try the molecule `Cc1noc(C)c1/C=N/Nc1ccc2ccccc2n1`
Data returned: Criterion not met

Data request: Try the molecule `Cc1cc(C(=O)Nc2c(C)nn(Cc3ccccc3)c2C)on1`
Data returned: Criterion not met

Data request: Try the molecule `CCCCNC(=O)CCn1c(=S)[nH]c2cc3c(cc2c1=O)OCO3`
Data returned: Criterion met

Data request: Try the molecule `COc1cc(C(F)(F)F)nc2c(Br)c(C(C)(C)C)nn12`
Data returned: Criterion not met
